Test system: Plasmodium falciparum
Experiment: Inhibitory activity against chloroquine-resistant Plasmodium falciparum FcB1R
Format: functional, organism-based
Details: Plasmodium falciparum
pIC50: −log10 of the molar value.
Decision: pIC50 compared against 7; not below it gives True, below it gives False.

Use these answered entries as a reference point.
>  <Record smiles>
CC1CCN(CCCCCC(=O)Nc2cc(CO)cc(Nc3ccnc4cc(Cl)ccc34)c2)CC1

>  <Study system>
Plasmodium falciparum

>  <Group>
False

$$$$
>  <Record smiles>
O=C(C[n+]1ccccc1)Nc1cc(CO)cc(Nc2ccnc3cc(Cl)ccc23)c1.[Cl-]

>  <Study system>
Plasmodium falciparum

>  <Group>
False

$$$$
>  <Record smiles>
O=C(CN1CCCCC1)Nc1cc(COC(=O)CCCCN2CCCC2)cc(Nc2ccnc3cc(Cl)ccc23)c1

>  <Study system>
Plasmodium falciparum

>  <Group>
True

$$$$
>  <Record smiles>
CC1CCN(CCCCCCCC(=O)Nc2cc(CO)cc(Nc3ccnc4cc(Cl)ccc34)c2)CC1

>  <Study system>
Plasmodium falciparum

>  <Group>
False

$$$$

IN: Exam item: decide whether the reported pIC50 for `O=C(CN1CCCCC1)Nc1cc(CN2CCN(Cc3ccc(Cl)cc3)CC2)cc(Nc2ccnc3cc(Cl)ccc23)c1` is at least 7.
OUT: True
